Test: MRT in male Sprague-Dawley rat at 3 mg/kg, iv measured after 24 hrs by LC-MS/MS analysis
Format: ADME, organism-based
Details: in vivo
Bridge positions count the residues as written; N and C are the ends. Square brackets hold non-standard residues; d marks the D form. Peptide text beside a SMILES is read from it. * marks the point of attachment. Heptanoyl(6-Me) = CC(C)CCCCC(=O)*; Dab = NCC[C@H](N)C(=O)O; Dap = NC[C@H](N)C(=O)O
MEASUREMENT KIND: MRT (h)
Output spec: scalar in h, unitless text.

Incoming: Provide one value: measured MRT of CC(C)CCCCC(=O)N[C@@H](CCN)C(=O)N[C@H](C(=O)N[C@@H](CN)C(=O)N[C@H]1CCNC(=O)[C@H]([C@@H](C)O)NC(=O)[C@H](CCN)NC(=O)[C@H](CCN)NC(=O)[C@H]([C@@H](C)O)NC(=O)[C@@H](Cc2ccccc2)NC(=O)[C@H](CCN)NC1=O)[C@@H](C)O ({Heptanoyl(6-Me)}-[Dab]T[Dap][Dab][Dab][dF]T[Dab][Dab]T; lactam 4-C)
Outgoing: 1.17

---

Here, each record is paired with measured IC50 at 72 h data.
Assay: Renal cytotoxicity against HK-2 cells incubated for 72 hrs by CCK8 assay
Assay type: toxicity, cell-based
Conditions: human
Bridge positions count the residues as written; N and C are the ends. Square brackets hold non-standard residues; d marks the D form. Peptide text beside a SMILES is read from it. * marks the point of attachment. Heptanoyl(6-Me) = CC(C)CCCCC(=O)*; Octanoyl = CCCCCCCC(=O)*; Dab = NCC[C@H](N)C(=O)O; Dap = NC[C@H](N)C(=O)O

Answered cases to consult:
[
  {
    "COMPOUND": "CC(C)CCCCC(=O)N[C@@H](CCN)C(=O)N[C@H](C(=O)N[C@@H](CCCCN)C(=O)N[C@H]1CCNC(=O)[C@H]([C@@H](C)O)NC(=O)[C@H](CCN)NC(=O)[C@H](CCN)NC(=O)[C@H]([C@@H](C)O)NC(=O)[C@@H](Cc2ccccc2)NC(=O)[C@H](CCN)NC1=O)[C@@H](C)O",
    "IC50 at 72 h": "> 500 µg/mL"
  },
  {
    "COMPOUND": "CCCCCCCC(=O)N[C@@H](CCN)C(=O)N[C@H](C(=O)N[C@@H](CCN)C(=O)N[C@H]1CCNC(=O)[C@H]([C@@H](C)O)NC(=O)[C@H](CCN)NC(=O)[C@H](CCN)NC(=O)[C@H]([C@@H](C)O)NC(=O)[C@@H](CC(C)C)NC(=O)[C@H](CCN)NC1=O)[C@@H](C)O (Octanoyl-[Dab]T[Dab][Dab][Dab][dL]T[Dab][Dab]T; lactam 4-C)",
    "IC50 at 72 h": "> 500 µg/mL"
  }
]

// next entry
Incoming: Provide one value: measured IC50 at 72 h of CC(C)CCCCC(=O)N[C@@H](CCN)C(=O)N[C@H](C(=O)N[C@@H](CN)C(=O)N[C@H]1CCNC(=O)[C@H]([C@@H](C)O)NC(=O)[C@H](CCN)NC(=O)[C@H](CCN)NC(=O)[C@H]([C@@H](C)O)NC(=O)[C@@H](Cc2ccccc2)NC(=O)[C@H](CCN)NC1=O)[C@@H](C)O ({Heptanoyl(6-Me)}-[Dab]T[Dap][Dab][Dab][dF]T[Dab][Dab]T; lactam 4-C)
Outgoing: > 500 µg/mL
